- test name: HTRF signal interference by compounds, confirmation, artefact control for SUMOylation inhibitor project, biochemical, uHTS (AID 2069)
- test context: HTRF interference counterscreen, fluorescence, at 35 µM
Screen size: about 1,200 compounds; about 210 (18%) were called active. No stated cut-off is given here; in the data, active means inhibition above about 30%; inactive means the rest. A selection follows.
Your reply should match one of these outcome classes. y for active, n for inactive

Observe how each entry below is paired with its result.
compound	group label
COCCn1c(-c2ccco2)nc2nc3ccccc3nc21	n
C=CCn1c(NS(=O)(=O)c2ccccc2)c(S(=O)(=O)c2ccc(C)cc2)c2nc3ccccc3nc21	n
CC1=CC2(O)OCCN(CCO)C2=CC1=O (centres undefined)	n

IN: I'd appreciate the recorded outcome for CCCCCCC(C)OC(=O)c1ccccc1C(=O)O (centres undefined) from this test.
OUT: n

IN: I'd appreciate the recorded outcome for "Nc1c(C(=O)NCc2ccco2)c2nc3ccccc3nc2n1CCc1ccccc1" from this test.
OUT: n

IN: I'd appreciate the recorded outcome for "CCc1ccccc1NC(=O)Nc1cccn(Cc2ccccc2F)c1=O" from this test.
OUT: n

IN: I'd appreciate the recorded outcome for "Cc1ccc(S(=O)(=O)NNC(=O)Nc2cccc3ccccc23)cc1" from this test.
OUT: n

IN: I'd appreciate the recorded outcome for "C=CCn1c(NC(=O)c2ccc(Br)o2)c(S(=O)(=O)c2ccccc2)c2nc3ccccc3nc21" from this test.
OUT: n

IN: I'd appreciate the recorded outcome for NC(=O)CC(NC(=O)Cc1ccc(Br)cc1)c1ccc(NCCc2ccccc2F)c([N+](=O)[O-])c1 (centres undefined) from this test.
OUT: n

IN: I'd appreciate the recorded outcome for COc1cc(C)c2c(c1C=O)Oc1c(c(C)c(O)c3c1C(O)OC3=O)OC2=O (centres undefined) from this test.
OUT: n

IN: I'd appreciate the recorded outcome for "COCCCNC(=O)c1c(N)n(-c2ccccc2)c2nc3ccccc3nc12" from this test.
OUT: y

IN: I'd appreciate the recorded outcome for "CCOC(=O)CCc1c(C)c(C#N)c2[nH]c3ccccc3n2c1=O" from this test.
OUT: n

IN: I'd appreciate the recorded outcome for O=C(Cc1cc(=O)oc2cc(O)ccc12)NCC1CCC(C(=O)O)CC1 (centres undefined) from this test.
OUT: y

IN: I'd appreciate the recorded outcome for "O=C(O)/C=C/C(=O)Nc1ccc2c(c1)NC(=O)CO2" from this test.
OUT: n

Source listed as PubChem BioAssay AID2069.
